test-details: Compound was evaluated for volume of distribution (steady state) after treatment with iv dose of 1 mgkg to male wistar rats
Format: ADME, organism-based
Set-up: dose 1 mgkg, route intravenous
measurement-parameters: rat, in vivo, 1 mg/kg, read-out: Vss

# item-smiles, Vd
measured = [
    ("COc1ccc(C(=O)/C(Cc2cc(OC)c(OC)c(OC)c2)=C(\\C(=O)[O-])c2ccc3nsnc3c2)cc1F.[Na+]", "0.5 L/kg"),
]

====

test-target: Endothelin-1 receptor (Rattus norvegicus)
Sequence (P26684 whole entry): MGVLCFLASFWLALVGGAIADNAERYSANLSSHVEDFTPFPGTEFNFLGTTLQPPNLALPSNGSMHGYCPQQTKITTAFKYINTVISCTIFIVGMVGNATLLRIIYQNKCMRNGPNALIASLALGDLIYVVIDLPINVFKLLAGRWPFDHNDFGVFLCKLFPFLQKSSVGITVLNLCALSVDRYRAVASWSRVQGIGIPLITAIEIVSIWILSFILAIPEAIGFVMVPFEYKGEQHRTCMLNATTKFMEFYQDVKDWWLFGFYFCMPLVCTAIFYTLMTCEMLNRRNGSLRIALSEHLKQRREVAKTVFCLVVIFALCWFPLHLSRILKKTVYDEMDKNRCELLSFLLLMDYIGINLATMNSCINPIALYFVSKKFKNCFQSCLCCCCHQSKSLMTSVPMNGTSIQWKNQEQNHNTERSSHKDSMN

# compound, test-target, IC50 (nM)
rows = [
    ("COc1cc(C/C(C(=O)c2cc(OC)c(OC)c(OC)c2)=C(/C(=O)O)c2ccc3nsnc3c2)cc(OC)c1OC", "Endothelin-1 receptor (Rattus norvegicus)", 3.7),
    ("COc1ccc(C(=O)/C(Cc2cccc(OC)c2)=C(\\C(=O)O)c2ccc3nsnc3c2)cc1", "Endothelin-1 receptor (Rattus norvegicus)", 3.4),
    ("COc1ccc(C(=O)/C(Cc2ccc3c(c2)CCO3)=C(\\C(=O)O)c2ccc3nsnc3c2)cc1", "Endothelin-1 receptor (Rattus norvegicus)", 3.4),
    ("COc1cc(C/C(C(=O)c2ccc(OC(F)F)cc2)=C(/C(=O)O)c2ccc3nsnc3c2)cc(OC)c1OC", "Endothelin-1 receptor (Rattus norvegicus)", 160),
    ("COc1ccc(C/C(C(=O)c2ccc(OC)cc2)=C(/C(=O)O)c2ccc3nsnc3c2)cc1", "Endothelin-1 receptor (Rattus norvegicus)", 28),
    ("COc1ccc(C(=O)/C(Cc2cc(OC)c(OC)c(OC)c2)=C(\\C(=O)O)c2ccc3c(c2)OCO3)cc1 [PD-156707 SODIUM]", "Endothelin-1 receptor (Rattus norvegicus)", 1.3),
    ("COc1cc(C/C(C(=O)c2ccc3c(c2)OCO3)=C(/C(=O)O)c2ccc3nsnc3c2)cc(OC)c1OC", "Endothelin-1 receptor (Rattus norvegicus)", 6.5),
    ("COc1cc(C/C(C(=O)c2ccc(OC(C)C)c(F)c2)=C(/C(=O)O)c2ccc3nsnc3c2)cc(OC)c1OC", "Endothelin-1 receptor (Rattus norvegicus)", 65),
    ("COc1ccc(C(=O)/C(Cc2ccccc2)=C(\\C(=O)O)c2ccc3nsnc3c2)cc1", "Endothelin-1 receptor (Rattus norvegicus)", 26),
    ("COc1cc(C/C(C(=O)c2ccc3c(c2)CCO3)=C(/C(=O)O)c2ccc3nsnc3c2)cc(OC)c1OC", "Endothelin-1 receptor (Rattus norvegicus)", 28),
    ("COc1ccc(C(=O)/C(Cc2ccc(SC)cc2)=C(\\C(=O)O)c2ccc3nsnc3c2)cc1", "Endothelin-1 receptor (Rattus norvegicus)", 17),
    ("COc1ccc(C(=O)/C(Cc2ccc(OC)c(F)c2)=C(\\C(=O)O)c2ccc3nsnc3c2)cc1", "Endothelin-1 receptor (Rattus norvegicus)", 14),
    ("COc1ccc(C(=O)/C(Cc2cc(OC)c(OC)c(OC)c2)=C(\\C(=O)O)c2ccc3nsnc3c2)cc1", "Endothelin-1 receptor (Rattus norvegicus)", 0.3),
    ("COc1ccccc1C(=O)/C(Cc1cc(OC)c(OC)c(OC)c1)=C(\\C(=O)O)c1ccc2nsnc2c1", "Endothelin-1 receptor (Rattus norvegicus)", 16),
    ("COc1ccc(C(=O)/C(Cc2cc(OC)c(OC)c(OC)c2)=C(\\C(=O)O)c2ccc3nsnc3c2)c(F)c1", "Endothelin-1 receptor (Rattus norvegicus)", 3),
    ("COc1ccc(C(=O)/C(Cc2cc(OC(C)C)c(OC(C)C)c(OC(C)C)c2)=C(\\C(=O)O)c2ccc3nsnc3c2)cc1", "Endothelin-1 receptor (Rattus norvegicus)", 57),
    ("COc1ccc(C(=O)/C(Cc2ccc(OC(C)(C)C)cc2)=C(\\C(=O)O)c2ccc3nsnc3c2)cc1", "Endothelin-1 receptor (Rattus norvegicus)", 580),
    ("COc1cccc(C(=O)/C(Cc2cc(OC)c(OC)c(OC)c2)=C(\\C(=O)O)c2ccc3nsnc3c2)c1", "Endothelin-1 receptor (Rattus norvegicus)", 4.6),
    ("COc1ccc(C(=O)/C(Cc2ccc3c(c2)OCO3)=C(\\C(=O)O)c2ccc3nsnc3c2)cc1", "Endothelin-1 receptor (Rattus norvegicus)", 66),
]
